List of Human GLP1R cAMP HEK293T EC50 values.
Target: full-length human GLP-1R with an N-terminal FLAG tag, overexpressed on HEK-293T cells (human, UniProt P43220 24-463)
Assay: cell-based or functional assay
Starred links: 1 amine or outer side, 2 acyl side, 3 side chain; linkers in the order of their positions; H or OH if unused. Non-standard residues stand in square brackets, D forms with d. Groups on a side chain read outwards from the residue. *: point of attachment. C15 diacid = O=C(O)CCCCCCCCCCCCCC(=O)*; γGlu = O=C(O)[C@H](CCC(=O)[*:2])N[*:1]; AEEA = NCCOCCOCC(=O)O; Aib = CC(C)(N)C(=O)O

| binder | unit spec | bound operator | Human GLP1R cAMP HEK293T EC50 |
| --- | --- | --- | --- |
| Me-Y[Aib]EGTFISDYSIALDR[Aib]K([AEEA-AEEA-γGlu-γGlu-C15 diacid])Q[Aib]NFVNWLLAQSG-OH [Compound 161] | nM | > | 1000 |
| Me-Y[Aib]EGTFISDYSIALDR[Aib]AQ[Aib]K([AEEA-AEEA-γGlu-γGlu-C15 diacid])FVNWLLAQSPG-OH [Compound 184] | nM | > | 1000 |
| YXEGTFISDYSIXLDRXAQXDFVNWLLAQSPG (N-terminal Me (Me-Tyr1); Aib at 2, 13, 20; Km = Lys(R) at 17, linker printed GS (read as G5 = GGGGG), lipid C15DA (C15 diacid); C-terminal OH) [Compound 186] | nM | = | 26.9 |
| Me-YAEGTFISDYSIALDR[Aib]AQ[Aib]K([2OEG-γGlu-γGlu-C15 diacid])FVNWLLAQKG-OH [Compound 217] | nM | = | 4.9 |
| YXEGTFISDYSIAXDRXAQXNFVNWLLAQSG (N-terminal Me (Me-Tyr1); Aib at 2, 17, 20; Km = Lys(R) at 14, linker printed GS (read as G5 = GGGGG), lipid C15DA (C15 diacid); C-terminal OH) [Compound 160] | nM | = | 24 |
